PROTOCOL DESCRIPTION: Evaluation of conversion rate to active form in buffer solution (Experimental Example 1)
Assay type: physicochemical
CONDITION DESCRIPTION: pH5.0, 0 hr, 37° C., 25 umol/L in buffer solution
Where a name gives a salt, the structure may show the parent alone.
Could you please report measured Residual rate for the items listed next?
Give just the number in %; leave the unit off.

// query Look up and state reported Residual rate for CCN(CCC1CCCCN1)C(=O)Oc1cc(O)c2c(=O)cc(-c3ccccc3Cl)oc2c1[C@H]1CCN(C)C[C@H]1O (some centres unmarked)
// result 84.3

// query Look up and state reported Residual rate for CN1CC[C@H](c2c(OC(=O)N(Cc3ccccc3)CC3CCCCN3)cc(O)c3c(=O)cc(-c4ccccc4Cl)oc23)[C@H](O)C1 (some centres unmarked)
// result 95.6

// query Look up and state reported Residual rate for COCCN(CC1CCCCN1)C(=O)Oc1cc(O)c2c(=O)cc(-c3ccccc3Cl)oc2c1[C@H]1CCN(C)C[C@H]1O (some centres unmarked)
// result 80.7

// query Look up and state reported Residual rate for CCNC(=O)Oc1cc(O)c2c(=O)cc(-c3ccccc3Cl)oc2c1[C@H]1CCN(C)C[C@H]1O [Comparative Example 1, reference compound]
// result 91.6

// query Look up and state reported Residual rate for CN1CC[C@H](c2c(OC(=O)N(C)C[C@@H]3CCCCN3)cc(O)c3c(=O)cc(-c4ccccc4Cl)oc23)[C@H](O)C1
// result 99.8

// query Look up and state reported Residual rate for CCCN(C[C@H]1CCCCN1)C(=O)Oc1cc(O)c2c(=O)cc(-c3ccccc3Cl)oc2c1[C@H]1CCN(C)C[C@H]1O
// result 99.3

// query Look up and state reported Residual rate for CCN(CC1CCCCN1)C(=O)Oc1cc(O)c2c(=O)cc(-c3ccccc3Cl)oc2c1[C@H]1CCN(C)C[C@H]1O (some centres unmarked) [Example 7, dihydrochloride]
// result 100.0

// query Look up and state reported Residual rate for CCCN(CC1CCCCN1)C(=O)Oc1cc(O)c2c(=O)cc(-c3ccccc3Cl)oc2c1[C@H]1CCN(C)C[C@H]1O (some centres unmarked)
// result 96.2

====

PROTOCOL DESCRIPTION: Evaluation of conversion rate to active form in buffer solution (Experimental Example 1)
Assay type: physicochemical
CONDITION DESCRIPTION: pH5.5, 3 hr
REPORTED PROPERTY: Production rate of Alvocidib (%)
Give just the number in %; leave the unit off.

// query Look up and state reported Production rate of Alvocidib for CCOC(=O)O[C@@H]1CN(C)CC[C@@H]1c1c(O)cc(O)c2c(=O)cc(-c3ccccc3Cl)oc12 [Comparative Example 3, reference compound]
// result 1.1

// query Look up and state reported Production rate of Alvocidib for CN1CC[C@H](c2c(O)cc(O)c3c(=O)cc(-c4ccccc4Cl)oc23)[C@H](OC(=O)[C@@H](N)CO)C1 [Comparative Example 9, reference compound]
// result 22.4

// query Look up and state reported Production rate of Alvocidib for CNC(=O)O[C@@H]1CN(C)CC[C@@H]1c1c(O)cc(O)c2c(=O)cc(-c3ccccc3Cl)oc12 [Comparative Example 5, reference compound]
// result 0.0

// query Look up and state reported Production rate of Alvocidib for C[C@H](N)C(=O)O[C@@H]1CN(C)CC[C@@H]1c1c(O)cc(O)c2c(=O)cc(-c3ccccc3Cl)oc12 [Comparative Example 7, reference compound]
// result 33.1
